Measured values drawn from paper PMC6732362 for this set.

Target: human NQO1 p.R139W (Homo sapiens, UniProt P15559, R139W)
Sequence (P15559 whole entry R139W): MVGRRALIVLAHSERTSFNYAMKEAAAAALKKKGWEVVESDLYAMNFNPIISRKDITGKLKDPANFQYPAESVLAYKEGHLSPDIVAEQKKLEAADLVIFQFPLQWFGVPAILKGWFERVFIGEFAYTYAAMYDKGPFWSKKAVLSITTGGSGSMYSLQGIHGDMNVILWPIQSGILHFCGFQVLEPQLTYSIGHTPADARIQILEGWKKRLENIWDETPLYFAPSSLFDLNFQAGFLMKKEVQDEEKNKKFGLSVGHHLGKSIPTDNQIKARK
Test: Differential scanning fluorimetry (FAD release on thermal denaturation)
Details: p.R139W 2 μM dimer; from ΔTm vs inhibitor concentration; HEPES-OH pH 7.3; read-out: KD,app
ASSAY_READOUT: pKd
# pKd = -log10(concentration in molar units)

Recall the recorded pKd for NC(=O)c1cccnc1 [Nicotinamide, nicotinamide] with human NQO1 p.R139W (Homo sapiens, UniProt P15559, R139W) and state it.
1.74

---

Molecular target: human wild-type NQO1 (Homo sapiens)
Sequence (P15559 whole entry): as the sequence (P15559 whole entry R139W) above, with W139R counted along it
Test: Differential scanning fluorimetry (FAD release on thermal denaturation)
Type: binding
Set-up: hexahistidine; made in house; host or cells: Escherichia coli
Conditions: wild-type NQO1 2 μM dimer; from ΔTm vs inhibitor concentration; HEPES-OH pH 7.3; read-out: KD,app
ASSAY_READOUT: Kd (mM)
Report the value in mM with no unit label.

For the compound NC(=O)c1cccnc1 [Nicotinamide, nicotinamide] , what Kd is on record?
6
